tested on: galium (catchweed bedstraw, Galium aparine); assay: Test C postemergence, galium; format: in vivo; conditions: 31 g ai/ha Postemergence; visual injury, 0 to 100 scale (0 no effect, 100 complete control)
Attribute: Galium plant response rating
Answer as a number with no unit attached.

Examples from the recorded data:
>  <Molecule>
Cc1cc(C)c(N2CCC(OC3CC3)C2=O)cc1NS(=O)(=O)C(F)(F)F (single isomer, unassigned) [Compound 29]

>  <Galium plant response rating>
80

$$$$
>  <Molecule>
Cc1c(NS(=O)(=O)C(F)(F)F)cc(N2CCC(OC3CCC3)C2=O)c(C)c1C (stereo not shown) [Compound 45]

>  <Galium plant response rating>
100

$$$$
>  <Molecule>
Cc1c(N2CCCC(OC3CCC3)C2=O)cc(N(COC(=O)C(C)(C)C)S(=O)(=O)C(F)(F)F)c(C)c1F (stereo not shown) [Compound 39]

>  <Galium plant response rating>
80

$$$$

Attention now shifts to the item below.
Fetch value of Galium plant response rating on galium (catchweed bedstraw, Galium aparine) for CCO/N=C1\CCN(c2cc(NS(=O)(=O)C(F)(F)F)c(C)cc2C)C1=O [Compound 12] .
100

The origin of these recorded values is patent US20240158348A1.
